Molecular target: 11β-HSD1 (Homo sapiens)
Assay: biochemical
Settings: read-out: Average % inhibition at 100 nM, Biological Test Example 1; 100 nM
metric: inhibition at 0.1 µM (%)
Numbers only; they are read as %.

# assay system 11β-HSD1 (Homo sapiens): give inhibition at 0.1 µM of "C[C@@H](c1ccc(Br)cc1)N1CC[C@](CCC#N)(c2ccc(F)cc2)OC1=O"
97.9

# assay system 11β-HSD1 (Homo sapiens): give inhibition at 0.1 µM of "C[C@@H](c1ccc(Br)cc1)N1CC[C@](CCN2CCNC(=O)C2)(c2ccc(F)cc2)OC1=O"
57.7

# assay system 11β-HSD1 (Homo sapiens): give inhibition at 0.1 µM of CC(O)C[C@]1(c2ccc(F)cc2)CCN([C@@H](C)c2ccc(C(F)(F)F)cc2)C(=O)O1 (single isomer, unassigned) [EXAMPLE 388 Isomer 1]
92.8

# assay system 11β-HSD1 (Homo sapiens): give inhibition at 0.1 µM of "C[C@@H](c1ccc(Cl)cc1F)N1CC[C@](CCCO)(c2ccc(F)cc2)OC1=O"
98.5

# assay system 11β-HSD1 (Homo sapiens): give inhibition at 0.1 µM of "C[C@@H](c1ccc(F)cc1)N1CC[C@](CC(C)(C)O)(c2ccc(F)cc2)OC1=O"
94.7

# assay system 11β-HSD1 (Homo sapiens): give inhibition at 0.1 µM of C[C@@H](c1ccc(Br)cc1)N1CC[C@](CCC(N)=O)(c2ccc(F)cc2F)OC1=O (single isomer, unassigned) [EXAMPLE 504 Isomer 2]
94.4

# assay system 11β-HSD1 (Homo sapiens): give inhibition at 0.1 µM of "C[C@@H](c1ccc(F)cc1)N1CC[C@](CCC(C)(C)O)(c2ccccc2)OC1=O"
55.1

# assay system 11β-HSD1 (Homo sapiens): give inhibition at 0.1 µM of "C[C@@H](c1ccc(F)cc1)N1CC[C@](CC(C)(C)O)(c2ccccc2)OC1=O"
95.3

# assay system 11β-HSD1 (Homo sapiens): give inhibition at 0.1 µM of "C[C@@H](c1ccc(Cl)c(F)c1)N1CC[C@](CCO)(c2ccc(F)cc2)OC1=O"
94.5

# assay system 11β-HSD1 (Homo sapiens): give inhibition at 0.1 µM of "C[C@@H](c1cccc(CO)c1)N1CC[C@](CCCO)(c2ccc(F)cc2)OC1=O"
74.5

# assay system 11β-HSD1 (Homo sapiens): give inhibition at 0.1 µM of "C[C@@H](c1ccc(-c2ccc(F)cc2)cc1)N1CC[C@](CCN2CCC2)(c2ccc(F)cc2)OC1=O"
72.3

# assay system 11β-HSD1 (Homo sapiens): give inhibition at 0.1 µM of C=CCC1(c2ccc(F)cc2)CCN(Cc2ccccc2Br)C(=O)O1 (stereo not shown)
91.8

# assay system 11β-HSD1 (Homo sapiens): give inhibition at 0.1 µM of O=C1OC(CCCO)(c2ccc(F)cc2)CCN1Cc1ccccc1Br (stereo not shown)
83.1

# assay system 11β-HSD1 (Homo sapiens): give inhibition at 0.1 µM of "C[C@@H](c1ccc(Br)cc1)N1CC[C@](CC(C)(C)CO)(c2ccc(F)cc2)OC1=O"
98.6

# assay system 11β-HSD1 (Homo sapiens): give inhibition at 0.1 µM of "COc1ccc([C@H](C)N2CC[C@](CCC(N)=O)(c3ccccc3)OC2=O)cc1"
93.2

# assay system 11β-HSD1 (Homo sapiens): give inhibition at 0.1 µM of "C[C@@H](c1ccc(C(F)(F)F)cc1)N1CC[C@](CCO)(c2ccccc2)OC1=O"
97.9

---

Molecular target: 11β-HSD1 (Homo sapiens, UniProt P28845)
Sequence (P28845 whole entry): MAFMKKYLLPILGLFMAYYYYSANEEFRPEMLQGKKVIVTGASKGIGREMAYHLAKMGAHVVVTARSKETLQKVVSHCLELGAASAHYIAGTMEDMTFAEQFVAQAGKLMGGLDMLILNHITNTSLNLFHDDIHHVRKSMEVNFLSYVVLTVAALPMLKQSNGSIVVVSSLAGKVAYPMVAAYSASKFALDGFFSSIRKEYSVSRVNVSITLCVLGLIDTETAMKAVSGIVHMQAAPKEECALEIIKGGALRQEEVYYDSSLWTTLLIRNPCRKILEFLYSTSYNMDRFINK
Assay: biochemical
Conditions: IC50 Range, Biological Test Example 1; microsomes from CHO cells overexpressing human 11β-HSD1
Please respond with reported IC50 for every item in the list.

Provide only the value of recorded IC50 for NC(=O)CC1(c2ccccc2)CCN(c2cccc(-c3ccc(F)cc3F)c2)C(=O)O1 (centres unmarked) [EXAMPLE 76]
< 100 nM

Provide only the value of recorded IC50 for COc1ccc([C@H](C)N2CC[C@](CCO)(c3ccc(F)cc3)OC2=O)cc1 [EXAMPLE 195]
< 100 nM

Provide only the value of recorded IC50 for O=C1OC(CCO)(c2ccccc2)CCN1c1cccc(-c2ccc(F)cc2Cl)n1 (centres unmarked) [EXAMPLE 116]
< 100 nM

Provide only the value of recorded IC50 for CC1CC(CCO)(c2ccc(F)cc2)OC(=O)N1[C@@H](C)c1ccc(Br)cc1 (single isomer, unassigned) [EXAMPLE 163 Isomer 3]
> 100 nM

Provide only the value of recorded IC50 for COc1ccc([C@H](C)N2CCC(CC(O)CO)(c3ccccc3)OC2=O)cc1 (single isomer, unassigned) [EXAMPLE 286 Isomer 4]
> 100 nM

Provide only the value of recorded IC50 for CC(O)CC[C@]1(c2ccc(F)cc2)CCN([C@@H](C)c2ccc(F)cc2)C(=O)O1 (single isomer, unassigned) [EXAMPLE 411 Isomer 1]
< 100 nM

Provide only the value of recorded IC50 for O=C1OC(CCCO)(c2ccc(F)cc2)CCN1Cc1c(F)cccc1Cl (centres unmarked) [EXAMPLE 349]
< 100 nM

Provide only the value of recorded IC50 for Cc1cc(-c2ccc([C@H](C)N3CCC(C)(c4ccc(F)cc4)OC3=O)cc2)ccn1 (single isomer, unassigned) [EXAMPLE 519 Isomer 1]
< 100 nM

Provide only the value of recorded IC50 for C[C@@H](c1ccc(Br)cc1)N1CC[C@](CCN2CCOCC2)(c2ccccc2)OC1=O [EXAMPLE 397]
< 100 nM

Provide only the value of recorded IC50 for CC(=O)c1ccc(-c2ccc([C@H](C)N3CC[C@](CCCO)(c4ccccc4)OC3=O)cc2)s1 [EXAMPLE 249]
< 100 nM

Provide only the value of recorded IC50 for C=CCC1(c2ccc(F)cc2)CCN([C@@H](C)c2ccc(Br)cn2)C(=O)O1 (single isomer, unassigned) [EXAMPLE 128 Isomer 2]
> 1000 nM

Provide only the value of recorded IC50 for O=C1OC(CCO)(c2ccccc2F)CCN1c1cccc(-c2ccc(F)cc2F)[n+]1[O-] (centres unmarked) [EXAMPLE 132]
100 to 1000 nM

Provide only the value of recorded IC50 for Cc1ccc([C@H](C)N2CC[C@](CCCO)(c3ccc(F)cc3)OC2=O)cc1 [EXAMPLE 418]
< 100 nM

Provide only the value of recorded IC50 for C[C@@H](c1ccc(Br)cc1)N1CC[C@](CCN2CC[C@@H](F)C2)(c2ccc(F)cc2)OC1=O [EXAMPLE 378]
< 100 nM

Provide only the value of recorded IC50 for Cc1ccc([C@H](C)N2CC[C@](CC(C)(C)O)(c3ccccc3)OC2=O)cc1 [EXAMPLE 422]
< 100 nM

Provide only the value of recorded IC50 for C[C@@H](c1ccc(Br)cc1)N1CC[C@](CCC#N)(c2ccc(F)cc2)OC1=O [EXAMPLE 524]
< 100 nM

Provide only the value of recorded IC50 for CC1(c2ccccc2)CCN(c2cccc(-c3ccc(CO)cc3)c2)C(=O)O1 (centres unmarked) [EXAMPLE 48]
100 to 1000 nM

Provide only the value of recorded IC50 for C[C@@H](c1cccc(OCC(C)(C)O)c1)N1CCC(C)(c2ccccc2)OC1=O (mixture of isomers) [EXAMPLE 93]
100 to 1000 nM

Provide only the value of recorded IC50 for C[C@@H](c1ccc(C(F)(F)F)cc1)N1CC[C@](CCCNS(C)(=O)=O)(c2ccc(F)cc2)OC1=O [EXAMPLE 389]
< 100 nM

Provide only the value of recorded IC50 for C[C@@H](c1ccc(Br)cc1)N1CC[C@](CCCO)(c2ccc(F)cc2F)OC1=O [EXAMPLE 366]
< 100 nM

Provide only the value of recorded IC50 for COc1ccc([C@H](C)N2CC[C@](CCC(C)(C)O)(c3ccc(F)cc3)OC2=O)cc1 [EXAMPLE 426]
< 100 nM

Provide only the value of recorded IC50 for C[C@@H](c1ccc(-c2ccc(F)cc2)cc1)N1CC[C@](CCNCCF)(c2ccc(F)cc2)OC1=O [EXAMPLE 463]
< 100 nM

Provide only the value of recorded IC50 for C[C@@H](c1ccc(-c2ccc(F)cc2F)cc1)N1CC[C@](CC(O)CN(C)C)(c2ccc(F)cc2)OC1=O (single isomer, unassigned) [EXAMPLE 273 Isomer 2]
> 100 nM

Provide only the value of recorded IC50 for C[C@@H](c1ccc(Cl)cc1)N1CC[C@](CCCO)(c2ccccc2)OC1=O [EXAMPLE 403]
< 100 nM

Provide only the value of recorded IC50 for COc1ccc([C@H](C)N2CCC(C)(c3ccccc3)OC2=O)cc1 (single isomer, unassigned) [EXAMPLE 85 Isomer 1]
< 100 nM

Provide only the value of recorded IC50 for C[C@@H](c1ccc(-c2ccc(F)cc2)cc1)N1CC[C@](CCO)(c2cccs2)OC1=O (single isomer, unassigned) [EXAMPLE 218 Isomer 1]
< 100 nM

Provide only the value of recorded IC50 for C[C@@H](c1ccc(-c2ccc(F)cc2F)cc1)N1CC[C@](CC(=O)O)(c2ccc(F)cc2)OC1=O [EXAMPLE 174]
100 to 1000 nM

Provide only the value of recorded IC50 for C[C@@H](c1ccc(Br)cc1)N1CCC(CCO)(c2ccc(F)cc2F)OC1=O (single isomer, unassigned) [EXAMPLE 365 Isomer 1]
< 100 nM

Provide only the value of recorded IC50 for C=CCC1(c2ccc(F)cc2)CCN(C(C)c2ccc(-c3ccc(F)cc3F)cn2)C(=O)O1 (centres unmarked) [EXAMPLE 131]
> 1000 nM

Entry source: patent US8575156B2
